- TEST TARGET: Rhizobium etli rhizavidin variant RAWH (RAWH-His6), E115W/S23H (Rhizobium etli, UniProt Q8KKW2, E135W/S43H)
- Sequence (Q8KKW2 entry or part of it S43H/E135W): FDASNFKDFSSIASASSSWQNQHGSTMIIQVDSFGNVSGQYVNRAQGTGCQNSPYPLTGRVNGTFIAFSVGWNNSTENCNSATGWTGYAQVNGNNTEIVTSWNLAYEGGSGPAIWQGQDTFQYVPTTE
- ASSAY COMMENT: Kd measurement by competition binding for [^3H]biotin against streptavidin, RAWH
MEASURE NAME: pKd
// field semantics: pKd = negative decimal log of concentration (mol/L)

Prompt: Record request: pKd value, item O=C(O)CCCC[C@@H]1SC[C@@H]2NC(=O)N[C@@H]21 [[^3H]biotin]
Response: 11.16
